ASSAY SETUP: in water, 283 K

SMILES RECORD: Cl.NCCCC[C@H](N)C(=O)O
solubility (mole fraction): 0.0497

###

ASSAY SETUP: in water, 298.1 K

SMILES RECORD: Cl.NCCCC[C@H](N)C(=O)O
solubility (mole fraction): 0.0618

###

ASSAY SETUP: in water, 302.8 K

SMILES RECORD: Cl.NCCCC[C@H](N)C(=O)O
solubility (mole fraction): 0.0627

###

ASSAY SETUP: in ethanol, 308.1 K

SMILES RECORD: Cl.NCCCC[C@H](N)C(=O)O
solubility (mole fraction): 1.22e-05

###

ASSAY SETUP: in DMSO, 323.2 K

SMILES RECORD: Cl.NCCCC[C@H](N)C(=O)O
solubility (mole fraction): 0.0529

###

ASSAY SETUP: in ethylene glycol, 318 K

SMILES RECORD: Cl.NCCCC[C@H](N)C(=O)O
solubility (mole fraction): 0.0326

###

ASSAY SETUP: in methanol, 297.9 K

SMILES RECORD: Cl.NCCCC[C@H](N)C(=O)O
solubility (mole fraction): 0.000283

###

ASSAY SETUP: in ethanol, 318.2 K

SMILES RECORD: Cl.NCCCC[C@H](N)C(=O)O
solubility (mole fraction): 1.63e-05

###

ASSAY SETUP: in ethanol, 298.1 K

SMILES RECORD: Cl.NCCCC[C@H](N)C(=O)O
solubility (mole fraction): 9.91e-06

###

ASSAY SETUP: in ethylene glycol, 322.7 K

SMILES RECORD: Cl.NCCCC[C@H](N)C(=O)O
solubility (mole fraction): 0.0354

###

ASSAY SETUP: in ethylene glycol, 293.1 K

SMILES RECORD: Cl.NCCCC[C@H](N)C(=O)O
solubility (mole fraction): 0.0146

###

ASSAY SETUP: in DMSO, 303.3 K

SMILES RECORD: Cl.NCCCC[C@H](N)C(=O)O
solubility (mole fraction): 0.0391

###

ASSAY SETUP: in ethylene glycol, 282.9 K

SMILES RECORD: Cl.NCCCC[C@H](N)C(=O)O
solubility (mole fraction): 0.00769

###

ASSAY SETUP: in methanol, 318.1 K
EXPERIMENTAL READOUT: solubility (mole fraction)

SMILES RECORD: Cl.NCCCC[C@H](N)C(=O)O
READING: 0.00055

###

ASSAY SETUP: in DMSO, 308.4 K
EXPERIMENTAL READOUT: solubility (mole fraction)

SMILES RECORD: Cl.NCCCC[C@H](N)C(=O)O
READING: 0.0432
